experiment: Normal-phase TLC on silica gel 60 F254 (Rf); assay type: physicochemical; details: water:methanol:acetonitrile 60:20:20, ammonium acetate pH 7.4
The label is met for NP (Rf from NP TLC plate) below 0.5 and not met for NP (Rf from NP TLC plate) equal to or exceeding 0.5.

As a guide, the following entries are already answered.
molecule: CC(C)(C)NC[C@H](O)COc1nsnc1N1CCOCC1
assigned-label: met
//
molecule: CN1CCN2c3ccccc3Cc3ccccc3C2C1 (centres unmarked)
assigned-label: not met
//
molecule: OC(Cn1cncn1)(Cn1cncn1)c1ccc(F)cc1F
assigned-label: not met
//
molecule: CC[C@H]1OC(=O)[C@H](C)[C@@H](O[C@H]2C[C@@](C)(OC)[C@@H](O)[C@H](C)O2)[C@H](C)[C@@H](O[C@@H]2O[C@H](C)C[C@H](N(C)C)[C@H]2O)[C@](C)(O)C[C@@H](C)CN(C)[C@H](C)[C@@H](O)[C@]1(C)O
assigned-label: not met
//
molecule: CC(=O)CC(c1ccc([N+](=O)[O-])cc1)c1c(O)c2ccccc2oc1=O (centres unmarked)
assigned-label: not met

Lab log: compare recorded NP (Rf from NP TLC plate) with 0.5; is it strictly lower for CSc1ccc2c(c1)N(CCC1CCCCN1C)c1ccccc1S2 (centres unmarked) ?
met

Lab log: compare recorded NP (Rf from NP TLC plate) with 0.5; is it strictly lower for CCN(CC)C(=O)Nc1ccc(OCC(O)CNC(C)(C)C)c(C(C)=O)c1 (centres unmarked) ?
met

Lab log: compare recorded NP (Rf from NP TLC plate) with 0.5; is it strictly lower for COc1ccnc(C[S+]([O-])c2nc3ccc(OC(F)F)cc3[nH]2)c1OC (centres unmarked) ?
not met

====

This listing pairs compounds with measured RP (Rf from RP-2 TLC plate).
test: Reversed-phase TLC on RP-2 silanized plates (Rf); type: physicochemical; conditions: silica gel 60 RP-2 F254 silanized; water:methanol:acetonitrile 60:20:20, ammonium acetate pH 7.4
API note: the answer field is a bare number with no unit suffix.

The following compounds have reported results that may help.
compound: Cc1ncc2n1-c1ccc(Cl)cc1C(c1ccccc1F)=NC2 [midazolam]
RP (Rf from RP-2 TLC plate): 0.66
//
compound: O=C1Nc2ccc(Cl)cc2C(c2ccccc2)=NC1O (centres unmarked) [oxazepam]
RP (Rf from RP-2 TLC plate): 0.83
//
compound: OCCOCCN1CCN(C2=Nc3ccccc3Sc3ccccc32)CC1 [quetiapine]
RP (Rf from RP-2 TLC plate): 0.73
//
compound: CC1(C)S[C@@H]2[C@H](NC(=O)[C@H](N)c3ccc(O)cc3)C(=O)N2[C@H]1C(=O)O [amoxilcillin]
RP (Rf from RP-2 TLC plate): 0.99
//
compound: CCC(C)(C)C(=O)O[C@H]1C[C@@H](C)C=C2C=C[C@H](C)[C@H](CC[C@@H]3C[C@@H](O)CC(=O)O3)[C@H]21 [simvastatin]
RP (Rf from RP-2 TLC plate): 0.66

Requested read-out: RP (Rf from RP-2 TLC plate). Entry: OC(Cn1cncn1)(Cn1cncn1)c1ccc(F)cc1F [fluconazole]
0.9

Requested read-out: RP (Rf from RP-2 TLC plate). Entry: CCOc1ccc(/C=C2\NCCc3cc(OCC)c(OCC)cc32)cc1OCC [drotaverine]
0.55

Requested read-out: RP (Rf from RP-2 TLC plate). Entry: OCCN1CCN(CCC=C2c3ccccc3Sc3ccc(C(F)(F)F)cc32)CC1 [flupenthixol]
0.66

Requested read-out: RP (Rf from RP-2 TLC plate). Entry: OC(CNCC(O)C1CCc2cc(F)ccc2O1)C1CCc2cc(F)ccc2O1 (centres unmarked) [nebivolol]
0.4

Requested read-out: RP (Rf from RP-2 TLC plate). Entry: C[C@]12CC[C@@H]3c4ccc(O)cc4CC[C@H]3[C@@H]1CCC2=O [estrone]
0.79

Requested read-out: RP (Rf from RP-2 TLC plate). Entry: C[C@]12CC[C@@H]3c4ccc(OC(=O)c5ccccc5)cc4CC[C@H]3[C@@H]1CC[C@@H]2O [estradiol benzoate]
0.63

Requested read-out: RP (Rf from RP-2 TLC plate). Entry: CC(C)NCC(O)c1ccc(NS(C)(=O)=O)cc1 (centres unmarked) [sotalol]
0.85

Requested read-out: RP (Rf from RP-2 TLC plate). Entry: CN1CCN2c3ncccc3Cc3ccccc3C2C1 (centres unmarked) [mirtazapine]
0.58

Requested read-out: RP (Rf from RP-2 TLC plate). Entry: CN1CCN(C(=O)OC2c3nccnc3C(=O)N2c2ccc(Cl)cn2)CC1 (centres unmarked) [zopiclone]
0.84

Requested read-out: RP (Rf from RP-2 TLC plate). Entry: CCCc1nc2c(C)cc(-c3nc4ccccc4n3C)cc2n1Cc1ccc(-c2ccccc2C(=O)O)cc1 [telmisartan]
0.87

src = paper PMC10384010
